# credit: the supplement of paper PMC10567573

Collected protein stability index values appear next to each entry.
B1: DCAF4 (parent)
chain: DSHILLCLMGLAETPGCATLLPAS

Variants of: B1
assay-summary: protein stability index of a GFP-peptide fusion (GPS, HEK-293T) (PSI 1-6); higher = more stable;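 further: lentivirally expressed fusions sorted by FACS into six bins by GFP to DsRed ratio, PSI derived from sequencing read proportions per bin multiplied by bin number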
condition-info: c terminus: a fixed tail appended
Reply: number alone, nothing else.

Q: Which protein stability index value is on record for `DSHILLCLEGLAETPGCATLLPAS` ?
Ans: 2.02

Q: Which protein stability index value is on record for `DSLILLCLMGLAETPGCATLLPAS` ?
Ans: 3.05

Q: Which protein stability index value is on record for `DSHILLCLMGRAETPGCATLLPAS` ?
Ans: 2.05
